Origin of values: PubChem BioAssay AID1671202

assay-target: Huntingtin (Homo sapiens)
experiment: mutant huntingtin-calmodulin interaction inhibitors – biochemical, AlphaScreen, primary screen (AID 1671202);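 also: 0% = both proteins with DMSO and 100% = one protein alone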
assay-conditions: AlphaScreen His-mHTT/GST-CaM binding, luminescence; at 15 µM, active compounds read high
Screen size: about 190,000 compounds; about 6,900 (3.6%) were called active. Shown is part of a subset that was picked to be rich in actives.
property-label: inhibition (%)
The reply should be a number in %, with the unit left off.

CC(C)(C)NC(NC(=O)c1ccc(Br)cc1)C(Cl)(Cl)Cl (configuration not stated)	-11
COC(=O)c1ccc(NC(=O)C(c2ccccc2)n2cccc2)cc1 (configuration not stated)	75.5

[Q] Recorded inhibition for CC(=O)N1c2c(cc(Br)cc2S(=O)(=O)Nc2cccc([N+](=O)[O-])c2)CC1C (configuration not stated) with Huntingtin (Homo sapiens), please?
[A] 6

[Q] Recorded inhibition for "O=C(CSCc1ccccc1Cl)NC1CCCCC1" with Huntingtin (Homo sapiens), please?
[A] -5.4

[Q] Recorded inhibition for "O=C(Cc1ccc(F)cc1)NC1CCCC1" with Huntingtin (Homo sapiens), please?
[A] -1.1

[Q] Recorded inhibition for "COc1c(S(=O)(=O)Nc2ccc(CC(=O)O)cc2)ccc(Cl)c1Cl" with Huntingtin (Homo sapiens), please?
[A] -3

[Q] Recorded inhibition for COc1cc(Cl)c(NC(=O)C2CCCN(C(=O)c3cc(C)cc(C)c3)C2)c(OC)c1 (configuration not stated) with Huntingtin (Homo sapiens), please?
[A] 1.7

[Q] Recorded inhibition for "O=C(NCc1ccc(F)cc1)C1CCN(c2cnn(Cc3ccccc3)c(=O)c2)CC1" with Huntingtin (Homo sapiens), please?
[A] 2.29

[Q] Recorded inhibition for "CCOc1cc(/C=C2\NC(=O)NC2=O)cc(Cl)c1OCc1ccc([N+](=O)[O-])cc1" with Huntingtin (Homo sapiens), please?
[A] 74

[Q] Recorded inhibition for O=C(NC(Nc1cccc([N+](=O)[O-])c1)C(Cl)(Cl)Cl)c1ccc(Br)cc1 (configuration not stated) with Huntingtin (Homo sapiens), please?
[A] 76

[Q] Recorded inhibition for "Cc1ccc(C)c(N=c2oc3ccccc3cc2C(=O)Nc2nccs2)c1" with Huntingtin (Homo sapiens), please?
[A] -4

[Q] Recorded inhibition for "CNC(=O)C1CCN(Cc2cc3ccccc3n2Cc2ccc(F)cc2)CC1" with Huntingtin (Homo sapiens), please?
[A] 85.1

[Q] Recorded inhibition for "Cn1nc(-c2nc(-c3cccc(F)c3)no2)c2c1CCN(C(=O)Cc1cccs1)C2" with Huntingtin (Homo sapiens), please?
[A] 20.1

[Q] Recorded inhibition for "O=C1CS/C(=C(\C(Cl)=C(Cl)Cl)[N+](=O)[O-])N1c1ccc(Cl)cc1" with Huntingtin (Homo sapiens), please?
[A] 33

[Q] Recorded inhibition for "COc1ccc(OCCCC(=O)Nc2ccccc2)cc1" with Huntingtin (Homo sapiens), please?
[A] -9.6

[Q] Recorded inhibition for Cc1ccsc1C1C(C#N)=C(N)N(c2ccc(Br)cc2)C2=C1C(=O)CCC2 (configuration not stated) with Huntingtin (Homo sapiens), please?
[A] 22

[Q] Recorded inhibition for CCC1CO/C(=C(\C(=C(Cl)Cl)N2CCOCC2)[N+](=O)[O-])N1 (configuration not stated) with Huntingtin (Homo sapiens), please?
[A] -5

[Q] Recorded inhibition for "Cc1ccc(Cc2c(C)nc(C)nc2N2CCN(C(=O)c3ccccc3)CC2)cc1" with Huntingtin (Homo sapiens), please?
[A] 11.3

[Q] Recorded inhibition for Cc1ccc(N2CCC(C(=O)NCc3ccc(F)cc3)C2=O)cc1Cl (configuration not stated) with Huntingtin (Homo sapiens), please?
[A] -0.5

[Q] Recorded inhibition for "Cc1ccc(NC(=O)Cn2cccc2-c2nnc(C3CCC3)o2)cc1" with Huntingtin (Homo sapiens), please?
[A] 12.1

[Q] Recorded inhibition for O=C(c1ccc(F)cc1)N1CCCC1c1ccccc1F (configuration not stated) with Huntingtin (Homo sapiens), please?
[A] -8.08

[Q] Recorded inhibition for O=C(Nc1cc(F)ccc1F)C(c1ccccc1)n1cccc1 (configuration not stated) with Huntingtin (Homo sapiens), please?
[A] 42.3

----------
assay-target: Huntingtin (Homo sapiens) (UniProt P42858)
Sequence (P42858 whole entry, looked up, stated change not applied): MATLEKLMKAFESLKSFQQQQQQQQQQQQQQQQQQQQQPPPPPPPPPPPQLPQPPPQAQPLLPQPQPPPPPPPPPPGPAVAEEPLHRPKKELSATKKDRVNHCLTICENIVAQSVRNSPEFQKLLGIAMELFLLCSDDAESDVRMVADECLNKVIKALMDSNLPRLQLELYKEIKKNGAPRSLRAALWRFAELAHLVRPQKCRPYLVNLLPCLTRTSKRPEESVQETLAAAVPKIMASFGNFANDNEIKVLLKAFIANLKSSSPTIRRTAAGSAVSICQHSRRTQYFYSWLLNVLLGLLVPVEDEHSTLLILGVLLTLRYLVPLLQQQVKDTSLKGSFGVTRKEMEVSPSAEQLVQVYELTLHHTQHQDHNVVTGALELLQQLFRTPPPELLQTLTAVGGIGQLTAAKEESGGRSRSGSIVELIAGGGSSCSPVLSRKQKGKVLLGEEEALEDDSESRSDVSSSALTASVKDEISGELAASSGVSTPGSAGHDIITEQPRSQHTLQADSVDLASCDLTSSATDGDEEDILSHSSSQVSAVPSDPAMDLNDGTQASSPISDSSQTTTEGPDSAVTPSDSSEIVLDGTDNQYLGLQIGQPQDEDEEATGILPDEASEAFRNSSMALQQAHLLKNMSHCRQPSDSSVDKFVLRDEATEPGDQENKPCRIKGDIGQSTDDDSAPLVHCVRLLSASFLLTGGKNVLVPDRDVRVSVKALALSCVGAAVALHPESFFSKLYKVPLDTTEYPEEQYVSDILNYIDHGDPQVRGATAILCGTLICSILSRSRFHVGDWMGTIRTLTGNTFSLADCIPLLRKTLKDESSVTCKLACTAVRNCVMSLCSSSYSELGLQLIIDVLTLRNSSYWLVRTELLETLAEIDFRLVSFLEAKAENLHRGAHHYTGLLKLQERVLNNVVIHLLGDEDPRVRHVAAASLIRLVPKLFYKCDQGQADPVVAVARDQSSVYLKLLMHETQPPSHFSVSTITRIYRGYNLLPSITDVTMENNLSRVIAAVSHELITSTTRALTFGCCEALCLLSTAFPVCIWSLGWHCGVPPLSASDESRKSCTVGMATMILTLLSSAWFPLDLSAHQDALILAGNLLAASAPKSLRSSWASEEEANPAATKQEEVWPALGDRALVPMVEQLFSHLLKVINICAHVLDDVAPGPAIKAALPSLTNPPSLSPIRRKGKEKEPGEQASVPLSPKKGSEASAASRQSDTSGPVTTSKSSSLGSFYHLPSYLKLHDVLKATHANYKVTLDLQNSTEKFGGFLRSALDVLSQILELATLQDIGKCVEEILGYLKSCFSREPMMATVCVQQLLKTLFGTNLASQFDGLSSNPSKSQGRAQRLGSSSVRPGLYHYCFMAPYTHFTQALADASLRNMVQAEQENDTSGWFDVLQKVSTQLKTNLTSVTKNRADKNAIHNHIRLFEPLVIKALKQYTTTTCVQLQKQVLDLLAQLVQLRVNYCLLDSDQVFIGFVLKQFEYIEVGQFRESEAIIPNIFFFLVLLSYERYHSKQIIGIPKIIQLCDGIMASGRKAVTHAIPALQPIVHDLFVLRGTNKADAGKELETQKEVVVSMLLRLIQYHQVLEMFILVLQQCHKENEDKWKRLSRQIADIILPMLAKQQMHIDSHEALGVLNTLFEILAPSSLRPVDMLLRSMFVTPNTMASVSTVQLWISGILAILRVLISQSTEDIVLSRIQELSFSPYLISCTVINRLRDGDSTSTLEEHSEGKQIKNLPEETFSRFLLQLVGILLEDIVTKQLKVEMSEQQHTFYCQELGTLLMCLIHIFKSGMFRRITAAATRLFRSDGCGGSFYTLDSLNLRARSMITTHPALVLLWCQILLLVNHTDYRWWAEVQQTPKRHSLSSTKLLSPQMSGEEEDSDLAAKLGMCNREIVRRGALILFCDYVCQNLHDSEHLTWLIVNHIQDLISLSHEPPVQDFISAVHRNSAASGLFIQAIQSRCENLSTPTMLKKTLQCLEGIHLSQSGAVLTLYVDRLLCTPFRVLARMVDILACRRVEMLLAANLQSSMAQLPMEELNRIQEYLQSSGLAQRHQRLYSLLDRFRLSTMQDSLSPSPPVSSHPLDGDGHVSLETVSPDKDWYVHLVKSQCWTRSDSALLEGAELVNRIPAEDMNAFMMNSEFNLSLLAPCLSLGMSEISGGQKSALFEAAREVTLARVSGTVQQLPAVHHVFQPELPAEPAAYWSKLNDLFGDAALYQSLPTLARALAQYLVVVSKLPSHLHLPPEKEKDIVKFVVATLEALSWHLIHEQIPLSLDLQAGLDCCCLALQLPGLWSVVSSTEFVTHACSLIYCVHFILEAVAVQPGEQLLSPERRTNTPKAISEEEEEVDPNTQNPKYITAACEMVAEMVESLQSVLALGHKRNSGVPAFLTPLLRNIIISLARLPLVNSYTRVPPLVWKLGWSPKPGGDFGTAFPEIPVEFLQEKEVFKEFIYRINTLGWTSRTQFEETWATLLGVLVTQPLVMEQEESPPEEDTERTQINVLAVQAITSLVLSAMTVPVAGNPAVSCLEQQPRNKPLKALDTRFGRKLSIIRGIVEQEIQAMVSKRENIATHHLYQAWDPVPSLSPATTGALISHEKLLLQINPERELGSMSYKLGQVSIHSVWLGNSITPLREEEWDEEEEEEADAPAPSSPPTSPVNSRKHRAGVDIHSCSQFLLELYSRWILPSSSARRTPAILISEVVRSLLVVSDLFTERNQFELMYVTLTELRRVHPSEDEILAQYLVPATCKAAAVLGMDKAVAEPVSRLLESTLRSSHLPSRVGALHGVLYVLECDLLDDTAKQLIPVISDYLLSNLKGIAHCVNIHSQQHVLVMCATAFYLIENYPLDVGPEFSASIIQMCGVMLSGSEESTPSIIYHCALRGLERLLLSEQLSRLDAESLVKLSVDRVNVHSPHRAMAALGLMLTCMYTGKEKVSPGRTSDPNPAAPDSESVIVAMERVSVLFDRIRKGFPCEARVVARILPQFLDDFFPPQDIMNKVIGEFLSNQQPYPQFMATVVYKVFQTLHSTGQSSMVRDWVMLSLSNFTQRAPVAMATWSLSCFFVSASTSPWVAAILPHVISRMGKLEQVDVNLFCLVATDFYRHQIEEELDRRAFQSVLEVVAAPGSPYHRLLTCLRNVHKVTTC
experiment: mutant huntingtin-calmodulin interaction inhibitors – biochemical, AlphaScreen, primary screen (AID 1671202);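 also: 0% = both proteins with DMSO and 100% = one protein alone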
assay-conditions: AlphaScreen His-mHTT/GST-CaM binding, luminescence; at 15 µM
Hit rate of the full screen: of about 190,000 compounds, about 6,900 (3.6%) were called active. Cut-off read from the data, not from the text of the source: active = inhibition above about 50%; inactive = the rest. For the sample, actives were picked, then their nearest neighbours and some compounds at random.
Outcome field: choose from true (active), false (inactive)

Answered examples (4):
Cc1nc(N=C(N)N)nc2c(C)cccc12	false
O=C1c2ccccc2C(=O)N1CN(C(=O)c1ccc([N+](=O)[O-])cc1)c1ccc(F)cc1	false
NC(N)=Nc1nc(-c2ccccc2)c2cc(Cl)ccc2n1	true
O=C(CSc1oc(-c2ccco2)nc1S(=O)(=O)c1ccccc1)Nc1ccc(F)cc1	false

[Q] Look up the recorded call for "Cc1cccc(C(=O)NCCC2CCN(C(=O)Nc3cccc(Cl)c3)CC2)c1" in this test.
[A] false

[Q] Look up the recorded call for COc1ccc(NC(=O)C2CC(=O)N(C)C(=Nc3ccc(C)c(C)c3)S2)cc1 (configuration not stated) in this test.
[A] false

[Q] Look up the recorded call for "O=C(c1ccc(C(F)(F)F)cc1)N1CCC(=O)N([C@H](COCc2ccccc2)Cc2ccccc2)CC1" in this test.
[A] true

[Q] Look up the recorded call for "CC(C)C[C@@H](CO)N1CCN(Cc2ccc(O)cc2)CCC1=O" in this test.
[A] false

[Q] Look up the recorded call for "CN1CCC(=O)N([C@H](CO)Cc2ccccc2)CC1" in this test.
[A] false

[Q] Look up the recorded call for CN(C)C(CNC(=O)Nc1ccc(Cl)cc1)c1ccco1 (configuration not stated) in this test.
[A] false

[Q] Look up the recorded call for Cc1cccc(OCC(=O)N2CCCC(OCc3nc(C)no3)C2)c1 (configuration not stated) in this test.
[A] false

[Q] Look up the recorded call for COc1ccc(NC(=O)N2CC3CC(NS(=O)(=O)c4cccs4)C2C3)c(OC)c1 (configuration not stated) in this test.
[A] false

[Q] Look up the recorded call for "Cc1ccc(F)cc1NC(=O)Cc1nn(C)c(=O)c2ccccc12" in this test.
[A] false

[Q] Look up the recorded call for "Cc1ccc(F)cc1NC(=O)CSc1nnc(-c2ccco2)c(-c2ccco2)n1" in this test.
[A] true

[Q] Look up the recorded call for CC(C)(C)C(=O)NCCC(O)C1CC1 (configuration not stated) in this test.
[A] false

[Q] Look up the recorded call for "CC(C)C[C@@H](COCc1ccc(Cl)cc1)N1CCN(C(=O)c2ccc(Cl)cc2Cl)CCC1=O" in this test.
[A] true

[Q] Look up the recorded call for COc1ccc2c(c1)C(=O)C(C1(O)C(=O)Nc3ccccc31)CC2 (configuration not stated) in this test.
[A] false

[Q] Look up the recorded call for "CN(C)c1ccc(/C=C/CN2CCN(c3ccccc3F)CC2)cc1" in this test.
[A] true

----------
Measured inhibition by item
assay-target: Huntingtin (Homo sapiens) (UniProt P42858)
experiment: mutant huntingtin-calmodulin interaction inhibitors – biochemical, AlphaScreen, primary screen (AID 1671202);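 also: 0% = both proteins with DMSO and 100% = one protein alone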
assay-conditions: AlphaScreen His-mHTT/GST-CaM binding, luminescence; at 15 µM, active compounds read high
The campaign covered roughly 190,000 compounds. About 6,900 (3.6%) were called active. Shown is part of a subset that was picked to be rich in actives.
The reply should be a number in %, with the unit left off.

Some solved cases for reference:
COc1cccc(C=C2Oc3c(ccc(O)c3CN3CCN(C)CC3)C2=O)c1	18.1
C=CCn1c(-c2ccccc2)csc1=Nc1ccc(O)cc1	69
N#CCn1cccc1-c1nc(-c2ccncc2)no1	38.7
O=C1CC(c2ccccc2)=NN1c1ccc([N+](=O)[O-])cc1	91

[Q] Recorded inhibition for "O=[N+]([O-])c1ccc(N2CCN(S(=O)(=O)c3ccc(Br)s3)CC2)cc1" with Huntingtin (Homo sapiens) (UniProt P42858), please?
[A] 7

[Q] Recorded inhibition for O=C(CCC(=O)N1CC2CCCN2c2ccccc21)NCCCN1CCCCC1 (configuration not stated) with Huntingtin (Homo sapiens) (UniProt P42858), please?
[A] 7.41

[Q] Recorded inhibition for CCC(C)NC(=O)c1cn(CC(C)C)c(=O)c2c1c1ccccc1n2C (configuration not stated) with Huntingtin (Homo sapiens) (UniProt P42858), please?
[A] -2

----------
assay-target: Huntingtin (Homo sapiens)
experiment: mutant huntingtin-calmodulin interaction inhibitors – biochemical, AlphaScreen, primary screen (AID 1671202);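 also: 0% = both proteins with DMSO and 100% = one protein alone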
assay-conditions: AlphaScreen His-mHTT/GST-CaM binding, luminescence; at 15 µM, active compounds read high
The campaign covered roughly 190,000 compounds. About 6,900 (3.6%) were called active. The entries come from a sample that favours actives as a whole.
Measured inhibition by item
The reply should be a number in %, with the unit left off.

Some solved cases for reference:
CC(C)(C)CC(=O)N1CCN(c2nc(CN3CCCCCC3)cs2)CC1	-9.3
COc1ccc(CCCN)cc1OC	-2.8
O=C(NCC(c1cccs1)N1CCOCC1)C(=O)Nc1ccon1 (centres undefined)	-10.7

Please find the next compound below.
[Q] Quick one: inhibition of OCCCc1nc2n(n1)C(c1ccco1)C=C(c1ccc(Br)cc1)N2 (centres undefined) ?
[A] 34
